- EXPERIMENTAL TARGET: cynomolgus CD3 (cynomolgus monkey) (UniProt Q95LI5)
- ASSAY PROTOCOL: FACS titration on purified cynomolgus T cells
MEASURED ATTRIBUTE: pEC50
Just so you know, pEC50 here is -log10 of the concentration in molar units; reply with that number alone.

Input line: Which pEC50 is reported for this binder? BSSTEAP2/CD3-007 (bispecific antibody, V domains shown) VH 1: QVQLQQSGPGLVKPSQTLSLTCAISGDSVSSNRAAWNWIRQSPSRGLQWLGRTYYRSKWYNDYAVSLRSRITINPVTSKNQVALHMNSVTPEDTAVYYCARAGIVVVPGPETFYYYDHGLDVWGQGTTVTVSS VH 2: EVQLVESGGGLVQPGRSLRLSCAASGFTFADYTMHWVRQAPGKGLEWVSDISWNSGSIAYADSVKGRFTISRDNAKNSLYLQMNSLRTEDTAFYYCAKDSRGYGHYKYLGLDVWGQGTTVTVSS VL: DIQMTQSPSSLSASVGDRVTITCRASQSIRSYLNWYQQKPGKAPELLIHAASSLQSGVPSRFSGSGSGTDFTLTISSLQPEDFASYYCQQSYSAPPITFGQGTRLEIK
Output line: 7.76
